Source: patent US11028072B2

Where a name gives a salt, the structure may show the parent alone.
EXPERIMENTAL_ENDPOINT: melting point

Given the molecule CCc1nc(N)nc(N)c1OCc1csc(-c2ccc(Br)cc2)n1 (as salt: hydrochloride) , what is its reported melting point?
236 to 238 °C

Given the molecule CCc1nc(N)nc(N)c1OCc1coc(-c2ccc(OCC(=O)OCc3ccccc3)cc2)n1 (as salt: hydrochloride) (hydrate or solvate) , what is its reported melting point?
191.5 to 192.5 °C

Given the molecule CCc1nc(N)nc(N)c1OCc1csc(-c2cccc(OCC(=O)OCc3ccccc3)c2)n1 (as salt: hydrochloride) (hydrate or solvate) , what is its reported melting point?
175 to 177 °C

Given the molecule CCc1nc(N)nc(N)c1OCCc1coc(-c2ccccc2)n1 (as salt: hydrochloride) , what is its reported melting point?
254.5 to 255.5 °C
